Target: AKT1 WT (Homo sapiens, UniProt P31749)
Construct: expressed in transfected cells; host or cells: HEK293
Sequence (P31749 whole entry): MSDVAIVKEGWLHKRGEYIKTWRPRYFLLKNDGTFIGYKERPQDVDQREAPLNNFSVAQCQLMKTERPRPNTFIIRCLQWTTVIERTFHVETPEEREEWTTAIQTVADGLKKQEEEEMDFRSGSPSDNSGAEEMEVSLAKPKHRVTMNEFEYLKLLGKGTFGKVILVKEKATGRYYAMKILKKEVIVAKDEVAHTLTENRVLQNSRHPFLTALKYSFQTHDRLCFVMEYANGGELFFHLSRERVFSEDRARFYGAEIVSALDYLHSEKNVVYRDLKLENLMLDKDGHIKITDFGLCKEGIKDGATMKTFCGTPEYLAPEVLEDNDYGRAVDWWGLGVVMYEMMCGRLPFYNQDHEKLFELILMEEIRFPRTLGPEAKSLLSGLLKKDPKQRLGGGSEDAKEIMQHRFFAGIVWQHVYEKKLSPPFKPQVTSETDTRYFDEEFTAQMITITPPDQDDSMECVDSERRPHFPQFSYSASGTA
Test: Live cell AKT1 WT target engagement by NanoBRET competitive probe displacement in HEK293 cells
Format: binding
Conditions: NanoBRET live cell target engagement, HEK293 cells, 2 h at 37° C.; read-out: AKT1 WT IC50
pIC50: −log10 of the molar value.
param class (str): category from pIC50; see ranges low value: < 7; medium value: ≥ 7 and < 8; high value: ≥ 8

Use these answered entries as a reference point.
Cc1ncccc1C(=O)N[C@@H]1c2ccc(-n3c(-c4cccnc4N)nc4ccc(-n5cccn5)nc43)cc2CC1F (stereo partly drawn) [Compound 147]
medium value
CC(=O)N[C@H]1CCc2cc(-n3c(-c4cccnc4N)nc4ccc(-n5cccn5)nc43)ccc21
low value
CC(=O)NCC#Cc1ccc2nc(-c3cccnc3N)n(-c3ccc4c(c3)CC[C@@H]4NC(=O)c3ccc(C)nc3)c2n1
low value
Nc1ncccc1-c1nc2ccc(-n3cccn3)nc2n1-c1ccc2c(c1)CC[C@@H]2n1ccnn1
medium value

Query string: Which class is correct for the following compound? "Cc1ncc(C(=O)N[C@H]2CCc3cc(-n4c(-c5cccnc5N)nc5ccc(-n6cccn6)nc54)ccc32)s1"
Result string: high value

Query string: Entry "CN1CC(c2cn([C@H]3CCc4cc(-n5c(-c6cccnc6N)nc6ccc(-n7cccn7)nc65)ccc43)nn2)C1" belongs to which category?
Result string: low value

---

Target: AKT1 E17K (Homo sapiens, UniProt P31749, E17K)
Construct: expressed in transfected cells; host or cells: HEK293
Sequence (P31749 whole entry E17K): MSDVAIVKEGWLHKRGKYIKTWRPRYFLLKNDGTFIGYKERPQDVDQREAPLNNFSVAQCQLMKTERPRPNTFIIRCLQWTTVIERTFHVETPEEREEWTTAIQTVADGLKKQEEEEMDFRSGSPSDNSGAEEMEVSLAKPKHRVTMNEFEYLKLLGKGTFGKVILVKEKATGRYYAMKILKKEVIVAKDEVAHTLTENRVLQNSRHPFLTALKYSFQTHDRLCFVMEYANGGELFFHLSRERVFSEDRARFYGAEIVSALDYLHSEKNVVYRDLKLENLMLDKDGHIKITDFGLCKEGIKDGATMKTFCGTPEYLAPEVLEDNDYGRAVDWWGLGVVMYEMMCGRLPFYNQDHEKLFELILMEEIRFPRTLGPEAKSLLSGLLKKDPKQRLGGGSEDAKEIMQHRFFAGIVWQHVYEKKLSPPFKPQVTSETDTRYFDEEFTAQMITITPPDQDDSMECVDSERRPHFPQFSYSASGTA
Test: Live cell AKT1 E17K target engagement by NanoBRET competitive probe displacement in HEK293 cells
Format: binding
Details: NanoBRET live cell target engagement, HEK293 cells, 2 h at 37° C.
measured.parameter: pIC50
# reply with the number alone; pIC50 is -log10 of concentration in mol/L

Entry under test: COc1ccc(C(=O)N[C@H]2CCc3cc(-n4c(-c5cccnc5N)nc5ccc(-n6nccn6)nc54)ccc32)cn1 [Compound 371] . Its pIC50 was 7.32

Data point: Nc1ncccc1-c1nc2ccc(-n3cccn3)nc2n1-c1ccc2c(c1)CC[C@@H]2NC(=O)c1cncs1 [Compound 14] ; pIC50 = 7.64

Looking up Nc1ncccc1-c1nc2ccc(-n3cccn3)nc2n1-c1ccc2c(c1)CC[C@@H]2NC(=O)c1ccc(O)c(F)c1 [Compound 16] , I see its pIC50 listed as 7.99

pIC50 reading for Nc1ncccc1-c1nc2ccc(-n3cccn3)nc2n1-c1ccc2c(c1)CC[C@@H]2NC(=O)c1cnc(C(F)F)c(F)c1 [Compound 62] : 7.19

---

Molecular target: AKT2 (Homo sapiens)
Construct: expressed in transfected cells; host or cells: HEK293
Sequence (P31751 whole entry): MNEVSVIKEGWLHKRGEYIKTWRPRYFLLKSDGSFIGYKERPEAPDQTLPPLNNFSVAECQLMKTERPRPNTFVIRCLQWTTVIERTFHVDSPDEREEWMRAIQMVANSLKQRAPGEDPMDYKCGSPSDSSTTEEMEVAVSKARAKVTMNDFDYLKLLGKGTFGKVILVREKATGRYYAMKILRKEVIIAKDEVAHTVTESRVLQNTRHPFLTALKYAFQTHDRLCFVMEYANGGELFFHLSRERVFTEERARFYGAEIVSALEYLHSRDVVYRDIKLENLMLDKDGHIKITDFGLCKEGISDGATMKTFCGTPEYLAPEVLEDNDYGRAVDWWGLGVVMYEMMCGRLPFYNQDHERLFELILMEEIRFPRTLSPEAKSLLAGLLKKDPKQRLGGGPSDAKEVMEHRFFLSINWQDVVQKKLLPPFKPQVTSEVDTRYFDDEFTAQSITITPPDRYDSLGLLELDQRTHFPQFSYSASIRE
Experiment: Live cell AKT2 target engagement by NanoBRET competitive probe displacement in HEK293 cells
Assay type: binding
Conditions: NanoBRET live cell target engagement, HEK293 cells, 2 h at 37° C.; read-out: AKT2 IC50
Note that class boundaries on IC50 are 0: < 60 nM; 1: ≥ 60 nM and < 600 nM; 2: ≥ 600 nM

Nc1ncccc1-c1nc2ccc(-n3cccn3)nc2n1-c1ccc2c(c1)CC[C@@H]2NC(=O)c1cc(F)c2[nH]ncc2c1 [Compound 261]
0
Cn1ccc(C#Cc2cc(C(=O)N[C@H]3CCc4cc(-n5c(-c6cccnc6N)nc6ccc(-n7cccn7)nc65)ccc43)ccn2)n1 [Compound 182]
1
COc1cc(C(=O)N[C@H]2CCc3cc(-n4c(-c5cccnc5N)nc5ccc(-n6cccn6)nc54)ccc32)cc(F)c1F [Compound 3]
1
Nc1ncccc1-c1nc2ccc(-n3cccn3)nc2n1-c1ccc2c(c1)CC[C@@H]2NC(=O)c1ccc2ncnn2c1 [Compound 237]
0
Nc1ncccc1-c1nc2ccc(-n3cccn3)nc2n1-c1ccc2c(c1)CC[C@@H]2NC(=O)c1ccc2[nH][nH]c(=O)c2c1 [Compound 189]
2
Nc1ncccc1-c1nc2ccc(-n3cccn3)nc2n1-c1ccc2c(c1)CC[C@@H]2NC(=O)c1cccnc1C(F)F [Compound 79]
1

Query string: Record Cn1nccc1C(=O)N[C@H]1CCc2cc(-n3c(-c4cccnc4N)nc4ccc(-n5cccn5)nc43)ccc21 [Compound 144] — which class?
Result string: 1

Query string: Using the reported IC50, which band applies to CN1C(=O)CCC1CC(=O)N[C@H]1CCc2cc(-n3c(-c4cccnc4N)nc4ccc(-n5cccn5)nc43)ccc21 (mixture of isomers) [Compound 11] ?
Result string: 2

Query string: Class for Cc1ncccc1S(=O)(=O)N[C@H]1CCc2cc(-n3c(-c4cccnc4N)nc4ccc(-n5cccn5)nc43)ccc21 [Compound 139] ?
Result string: 2

Query string: Bin? Nc1ncccc1-c1nc2ccc(-n3cccn3)nc2n1-c1ccc2c(c1)CC[C@@H]2NC1CCC1 [Compound 88]
Result string: 2

Query string: Which class is correct for the following molecule? CC(=O)Nc1ccc(C(=O)N[C@H]2CCc3cc(-n4c(-c5cccnc5N)nc5ccc(-n6cccn6)nc54)ccc32)cc1F [Compound 309]
Result string: 0

---

Molecular target: AKT1 WT (Homo sapiens, UniProt P31749)
Construct: expressed in transfected cells; host or cells: HEK293
Assay: Live cell AKT1 WT target engagement by NanoBRET competitive probe displacement in HEK293 cells
Format: binding
Conditions: NanoBRET competitive probe displacement, live HEK293 cells, 2 h at 37° C.; read-out: AKT1 WT IC50
Reported pIC50 values are given for each entry in this list.
To interpret pIC50, take it as minus log10 of a concentration measured in moles per litre.

COc1cc2c(cn1)CCC2N[C@H]1CCc2cc(-n3c(-c4cccnc4N)nc4ccc(-n5cccn5)nc43)ccc21 (stereo partly drawn) [Compound 510]
7.84

Lab note: "COCCOc1ccn(-c2ccc3nc(-c4cccnc4N)n(-c4ccc5c(c4)CC[C@@H]5NC4CCN(C(=O)C5CC5)CC4)c3n2)n1" gave pIC50 of 7.84

The value of pIC50 measured for the compound "Nc1ncccc1-c1nc2ccc(-n3ccc(C4COC4)n3)nc2n1-c1ccc2c(c1)CC[C@@H]2NC1CCN(C(=O)C2CC2)CC1" turned out to be 7.18

The reported value for COc1cccc(-c2ccc3nc(-c4cccnc4N)n(-c4ccc5c(c4)CC(F)[C@@H]5NC4CCN(C(=O)C5CC5)CC4)c3n2)n1 (stereo partly drawn) in terms of pIC50 is 7.68

Reported pIC50 for "Nc1ncccc1-c1nc2ccc(-n3nccn3)nc2n1-c1ccc2c(c1)CC[C@@H]2NC(=O)c1cnc(C2CC2)s1" was 8.00

For this compound ( "Cn1nc(F)cc1C(=O)N[C@H]1CCc2cc(-n3c(-c4cccnc4N)nc4ccc(-n5cccn5)nc43)ccc21" ), measured pIC50 is 7.83

---

Consider the following molecules and their measured IC50 readings.
Biological target: AKT1 E17K (Homo sapiens, UniProt P31749, E17K)
Construct: expressed in transfected cells; host or cells: HEK293
Experiment: Live cell AKT1 E17K target engagement by NanoBRET competitive probe displacement in HEK293 cells
Format: binding
Conditions: NanoBRET live cell target engagement, HEK293 cells, 2 h at 37° C.
Unit nM implied. Number only.

See these solved cases before continuing.
Nc1ncccc1-c1nc2ccc(-n3cccn3)nc2n1-c1ccc2c(c1)CC[C@@H]2NC(=O)c1ccc(C2CC2)nc1
15
Cn1nc(C(=O)N[C@H]2CCc3cc(-n4c(-c5cccnc5N)nc5ccc(-n6cccn6)nc54)ccc32)c2c1OCC2
31.8
Nc1ncccc1-c1nc2ccc(-n3nccn3)nc2n1-c1ccc2c(c1)CC[C@@H]2NC(=O)c1cncnc1
261
Nc1ncccc1-c1nc2ccc(-n3cccn3)nc2n1-c1ccc2c(c1)CC[C@@H]2NC(=O)c1ccc2nccn2c1
41.2
Nc1ncccc1-c1nc2ccc(-n3ccc(F)n3)nc2n1-c1ccc2c(c1)CC[C@@H]2NC(=O)c1ccc(C(F)F)nc1
142

The molecule "Nc1ncccc1-c1nc2ccc(-n3cccn3)nc2n1-c1ccc2c(c1)CC[C@@H]2n1cc(C2CCC2)nn1" showed IC50 equal to 259

Data point: "COc1nccc(C(=O)N[C@H]2CCc3cc(-n4c(-c5cccnc5N)nc5ccc(-n6cccn6)nc54)ccc32)c1C" ; IC50 = 143

For reference, reported IC50 for "Cn1cc(C(=O)N[C@H]2CCc3cc(-n4c(-c5cccnc5N)nc5ccc(-n6cccn6)nc54)ccc32)cn1" stands at 211

Value of IC50 reported for the molecule Nc1ncccc1-c1nc2ccc(-n3nccn3)nc2n1-c1ccc2c(c1)CC(F)[C@@H]2NC(=O)c1ccc(C(F)F)nc1 (some centres unmarked) [Compound 350] is 94.4

// IC50 value for "Nc1ncccc1-c1nc2ccc(-n3cccn3)nc2n1-c1ccc2c(c1)CC[C@@H]2NC(=O)c1ccnc2occc12" : 84.2

Measured IC50 of "Cc1cc(C(F)F)ncc1C(=O)N[C@H]1CCc2cc(-n3c(-c4cccnc4N)nc4ccc(-n5cccn5)nc43)ccc21" : 143

Hey, just so you know, these numbers are from patent US12624034B2.
